target: Mu-type opioid receptor (Rattus norvegicus); test: Activity at Wistar rat mu opioid receptor assessed as inhibition of low-frequency electrically-stimulated vas deferens contraction in presence of naloxone
Sequence (P33535 whole entry): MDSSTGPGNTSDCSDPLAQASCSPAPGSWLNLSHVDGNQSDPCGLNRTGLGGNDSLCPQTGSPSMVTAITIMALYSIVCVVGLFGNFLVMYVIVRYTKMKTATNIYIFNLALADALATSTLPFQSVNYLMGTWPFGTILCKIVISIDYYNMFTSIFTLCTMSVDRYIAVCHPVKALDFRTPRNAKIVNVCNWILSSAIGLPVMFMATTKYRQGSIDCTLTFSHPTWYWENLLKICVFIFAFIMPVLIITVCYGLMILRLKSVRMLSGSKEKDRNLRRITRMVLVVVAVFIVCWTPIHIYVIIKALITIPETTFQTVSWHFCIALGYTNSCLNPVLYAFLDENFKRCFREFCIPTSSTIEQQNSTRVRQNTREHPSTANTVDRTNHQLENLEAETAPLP
Experimental Endpoint: pEC50
Please express pEC50 as -log10 of the molar concentration.

Summary for this substance, Ac-RFMWMK-NH2 : pEC50 is 5.94

###

molecular target: Nociceptin receptor (Rattus norvegicus); assay: Activity at Wistar rat NOP receptor assessed as inhibition of low-frequency electrically-stimulated vas deferens contraction in presence of naloxone
Experimental Endpoint: pEC50
Entry type: numeric. Quantity: pEC50, the -log10 of concentration in molar units.

Query Ac-RYYRWK-NH2 on Nociceptin receptor (Rattus norvegicus); pEC50 returned: 8.21

###

biological target: Nociceptin receptor (Rattus norvegicus, UniProt P35370); assay: Activity at Wistar rat NOP receptor assessed as inhibition of low-frequency electrically-stimulated vas deferens contraction
Sequence (P35370 whole entry): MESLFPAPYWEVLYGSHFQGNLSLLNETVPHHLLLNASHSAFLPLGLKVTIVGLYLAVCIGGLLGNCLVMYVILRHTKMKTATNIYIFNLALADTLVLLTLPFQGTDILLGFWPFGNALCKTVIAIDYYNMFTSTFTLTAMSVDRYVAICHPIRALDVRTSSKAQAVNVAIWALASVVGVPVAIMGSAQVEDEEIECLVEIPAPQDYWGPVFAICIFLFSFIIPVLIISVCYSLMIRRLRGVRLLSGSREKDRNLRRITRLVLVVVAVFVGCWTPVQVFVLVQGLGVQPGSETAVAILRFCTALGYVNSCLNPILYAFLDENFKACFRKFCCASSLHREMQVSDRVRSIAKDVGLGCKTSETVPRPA
Experimental Endpoint: pEC50
Keep it numeric: pEC50 is minus log10 of the concentration in mol/L.

// Ac-RYYRWK-NH2 : pEC50 value = 7.80
